Value source: ChEMBL document CHEMBL1145083

Target: Estrogen receptor beta (Homo sapiens, UniProt Q92731)
Sequence (Q92731 whole entry): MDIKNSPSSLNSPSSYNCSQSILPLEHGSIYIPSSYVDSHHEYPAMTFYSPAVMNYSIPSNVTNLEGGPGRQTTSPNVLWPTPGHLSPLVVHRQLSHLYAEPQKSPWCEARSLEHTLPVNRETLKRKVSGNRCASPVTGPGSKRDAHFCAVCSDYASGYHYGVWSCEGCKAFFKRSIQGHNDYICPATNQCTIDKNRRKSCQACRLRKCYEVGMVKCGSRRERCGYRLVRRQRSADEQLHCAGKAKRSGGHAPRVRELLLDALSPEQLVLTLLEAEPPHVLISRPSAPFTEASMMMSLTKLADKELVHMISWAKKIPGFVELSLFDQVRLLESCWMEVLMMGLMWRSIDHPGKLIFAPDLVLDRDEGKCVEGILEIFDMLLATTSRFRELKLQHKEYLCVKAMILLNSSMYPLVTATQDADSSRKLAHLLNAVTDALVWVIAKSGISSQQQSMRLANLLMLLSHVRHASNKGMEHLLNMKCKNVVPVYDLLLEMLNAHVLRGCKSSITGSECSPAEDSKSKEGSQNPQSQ
Assay: Antagonist effect on transcriptional activation in HEC-1 cells expressing Estrogen receptor beta at 10e-6 M against 10e-9 M estradiol
Assay type: functional, cell-based
Efficacy values, listed per item
Supply the numeric figure in %, leaving out any unit text.

# example entries with known answers
CCNc1c(/C=N/O)ccc(-c2ccccc2)c1-c1ccccc1    85
CNc1c(/C=N/O)ccc(-c2ccccc2)c1-c1ccccc1    71
Nc1c(/C=N/O)ccc(-c2ccccc2)c1-c1ccccc1    31
O/N=C/c1ccc(-c2ccccc2)c(-c2ccccc2)c1    69

Q: Can you share its Efficacy? I mean this compound: `O/N=C/c1ccc(-c2ccccc2)c(-c2ccccc2)c1O`
Ans: 53

###

Estrogen receptor beta (Homo sapiens) data, read-out Ki
Supply the numeric figure in nM, leaving out any unit text.

CNc1c(/C=N/O)ccc(-c2ccccc2)c1-c1ccccc1    5.2

Switching to the query record.
Q: So what Ki did `O/N=C/c1ccc(-c2ccccc2)c(-c2ccccc2)c1` get with Estrogen receptor beta (Homo sapiens)?
Ans: 0.27
